biological target: YY1 (UniProt P25490); test: log2 fold change, soluble protein after heating vs DMSO (PISA); higher = thermal stabilisation; K562 cells, 10 uM, 30 min; active = over 0.2 and 3.5 SD of the protein, either way, in both replicates (recomputed)
Sequence (P25490 whole entry, looked up): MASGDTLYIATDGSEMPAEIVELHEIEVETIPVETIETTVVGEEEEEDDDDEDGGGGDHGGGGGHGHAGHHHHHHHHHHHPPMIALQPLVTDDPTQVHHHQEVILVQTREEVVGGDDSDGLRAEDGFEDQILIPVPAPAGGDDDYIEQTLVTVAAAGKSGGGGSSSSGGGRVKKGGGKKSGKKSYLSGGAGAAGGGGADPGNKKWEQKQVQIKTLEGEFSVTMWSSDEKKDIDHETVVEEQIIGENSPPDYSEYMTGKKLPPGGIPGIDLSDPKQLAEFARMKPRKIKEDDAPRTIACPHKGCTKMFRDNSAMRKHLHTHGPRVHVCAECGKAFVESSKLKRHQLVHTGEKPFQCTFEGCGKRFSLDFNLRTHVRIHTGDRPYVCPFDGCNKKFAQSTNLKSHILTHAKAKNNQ
Of roughly 7,900 targets only a part is listed; those with a hit were picked by preference. About 0.6% of all pairs of compound and target were hits.
propertyName: log2 fold change
// return a plain number; no unit text

Query string: Any idea what log2 fold change was measured for "CC[C@H](C)n1cc(C)c2c(C(=O)NCc3c(C)cc(C)[nH]c3=O)cc(-c3ccc(N4CCNCC4)nc3)cc21" ?
Result string: 0.061

Query string: What does the data say about its log2 fold change? Entry: "CO[C@H]1C[C@@H]2CC[C@@H](C)[C@@](O)(O2)C(=O)C(=O)N2CCCC[C@H]2C(=O)O[C@H]([C@H](C)C[C@@H]2CC[C@H](n3cnnn3)[C@H](OC)C2)CC(=O)[C@H](C)/C=C(\C)[C@@H](O)[C@@H](OC)C(=O)[C@H](C)C[C@H](C)/C=C/C=C/C=C/1C"
Result string: -0.01

Query string: Report log2 fold change for "C[C@@H](N)c1ccc(C(=O)Nc2ccnc3[nH]ccc23)cc1" please.
Result string: -0.071

----------
Provide the recorded log2 fold change for the entries that follow.
target: YAE1 (UniProt Q9NRH1); assay: log2 fold change, soluble protein after heating vs DMSO (PISA); higher = thermal stabilisation; K562 cells, 10 uM, 30 min; active = over 0.2 and 3.5 SD of the protein, either way, in both replicates (recomputed)
Sequence (Q9NRH1 whole entry, looked up): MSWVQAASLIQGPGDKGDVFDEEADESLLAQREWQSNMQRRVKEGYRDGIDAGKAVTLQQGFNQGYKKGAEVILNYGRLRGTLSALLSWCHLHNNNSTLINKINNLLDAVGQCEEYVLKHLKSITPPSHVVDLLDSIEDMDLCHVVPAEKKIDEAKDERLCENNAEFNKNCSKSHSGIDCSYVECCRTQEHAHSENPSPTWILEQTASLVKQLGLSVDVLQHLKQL
The full data set covers some 7,900 targets. This sample favours those with a hit. About 0.6% of all pairs of compound and target were hits.
A bare number is all that is needed in reply.

Query string: Quick check: log2 fold change of "Cc1ncc(-c2ccnc(Nc3ccc(S(C)(=O)=O)cc3)n2)n1C(C)C" ?
Result string: 0.042

Query string: Any idea what log2 fold change was measured for "Cc1ccc2c(=O)c3ccccc3n(CCCN)c2c1C" ?
Result string: 0.022

Query string: What value of log2 fold change has been reported for the following compound? "CC[C@@H]1C(=O)N(C)c2cnc(Nc3ccc(C(=O)NC4CCN(C)CC4)cc3OC)nc2N1C1CCCC1"
Result string: -0.022

Query string: Entry under review: "NC1(c2ccc(-c3nc4ccn5c(=O)[nH]nc5c4cc3-c3ccccc3)cc2)CCC1" . Reported log2 fold change?
Result string: 0.086

Query string: What value of log2 fold change has been reported for the following compound? "CNCc1ccc(-c2[nH]c3cc(F)cc4c3c2CCNC4=O)cc1"
Result string: -0.078

Query string: # get_value(readout='log2 fold change', item= "NC(=O)c1cnc(N[C@@H]2CCCC[C@@H]2N)nc1Nc1cccc(-n2nccn2)c1" )
Result string: -0.038

Query string: Dear colleague, I am looking for the recorded log2 fold change of the following compound: "NC1(Cc2ccc(Cl)cc2)CCN(c2ncnc3[nH]ccc23)CC1"
Result string: -0.022

Query string: Which log2 fold change value is on record for "C[C@H](Nc1ncnc2nc[nH]c12)c1cc2cccc(Cl)c2c(=O)n1-c1ccccc1" ?
Result string: -0.021

Query string: Reported log2 fold change for "O=C(Nc1nc2ccccc2n1CCN1CCOCC1)c1cccc([N+](=O)[O-])c1" : what is it?
Result string: 0.103
